target: recombinant CD73 (Homo sapiens (Human)); test: Inhibition of soluble recombinant CD73 enzyme activity in vitro (AMP hydrolysis, Malachite Green phosphate detection); type: biochemical; conditions: recombinant CD73 0.5 nM, AMP 50 μM, 30 minutes at room temperature
Observed property: pIC50
// pIC50 is dimensionless: -log10 of concentration (M)

Task item: For "Nc1nc(Cl)nc2c1ncn2[C@@H]1O[C@H](COC(Cc2ccc(F)cc2)(C(=O)O)C(=O)O)[C@@H](O)[C@@H]1F" , what is its reported pIC50?
Reply: 6.46

Task item: For "Nc1ncnc2c1ncn2[C@@H]1O[C@H](COC(Cc2ccccc2)(C(=O)O)C(=O)O)[C@@H](O)[C@H]1F" , what is its reported pIC50?
Reply: 4.66

Task item: For "Nc1nc(Cl)nc2c1ncn2[C@@H]1O[C@H](COC(Cc2ccc(N3CCCCS3(=O)=O)cc2)(C(=O)O)C(=O)O)[C@@H](O)[C@@H]1F" , what is its reported pIC50?
Reply: 7.80

Task item: For Nc1nc(Cl)nc2c1ncn2[C@@H]1O[C@H](COC(Cc2csc(C(=O)O)c2)(C(=O)O)c2nn[nH]n2)[C@@H](O)[C@H]1O (stereo partly shown) , what is its reported pIC50?
Reply: 6.41

Task item: For "C[C@@H]1[C@@H](O)[C@H](n2cnc3c(N)nc(Cl)nc32)O[C@@H]1COC(Cc1ccccc1)(C(=O)O)C(=O)O" , what is its reported pIC50?
Reply: 5.76

Task item: For "Cc1n[nH]c(C)c1-c1ccc(CC(OC[C@H]2O[C@@H](n3cnc4c(N)nc(Cl)nc43)[C@@H](F)[C@@H]2O)(C(=O)O)C(=O)O)cc1" , what is its reported pIC50?
Reply: 7.47

Task item: For "Nc1nc(Cl)nc2c1ncn2[C@@H]1O[C@H](COC(Cc2ccc(-c3ccc(C(=O)O)cc3)cc2)(C(=O)O)C(=O)O)[C@@H](O)[C@@H]1F" , what is its reported pIC50?
Reply: 7.33

Task item: For "Nc1nc(Cl)nc2c1ncn2[C@@H]1O[C@H](COC(Cc2ccc(-c3cccc(F)c3O)cc2)(C(=O)O)C(=O)O)[C@@H](O)[C@@H]1F" , what is its reported pIC50?
Reply: 8.05

Task item: For CC(C)(C)OC(=O)Nc1nc(Cl)nc2c1ncn2[C@@H]1O[C@H](COC(Cc2ccccc2)(C(=O)O)c2nnnn2C(C)(C)c2ccccc2)[C@@H](O)[C@@H]1F (stereo partly shown) , what is its reported pIC50?
Reply: 4.94

* * *

molecular target: recombinant CD73 (Homo sapiens (Human), UniProt P21589); assay: Inhibition of soluble recombinant CD73 enzyme activity in vitro (AMP hydrolysis, Malachite Green phosphate detection); assay type: biochemical; details: recombinant CD73 0.5 nM, AMP 50 μM, 30 minutes at room temperature
Sequence (P21589 27-547): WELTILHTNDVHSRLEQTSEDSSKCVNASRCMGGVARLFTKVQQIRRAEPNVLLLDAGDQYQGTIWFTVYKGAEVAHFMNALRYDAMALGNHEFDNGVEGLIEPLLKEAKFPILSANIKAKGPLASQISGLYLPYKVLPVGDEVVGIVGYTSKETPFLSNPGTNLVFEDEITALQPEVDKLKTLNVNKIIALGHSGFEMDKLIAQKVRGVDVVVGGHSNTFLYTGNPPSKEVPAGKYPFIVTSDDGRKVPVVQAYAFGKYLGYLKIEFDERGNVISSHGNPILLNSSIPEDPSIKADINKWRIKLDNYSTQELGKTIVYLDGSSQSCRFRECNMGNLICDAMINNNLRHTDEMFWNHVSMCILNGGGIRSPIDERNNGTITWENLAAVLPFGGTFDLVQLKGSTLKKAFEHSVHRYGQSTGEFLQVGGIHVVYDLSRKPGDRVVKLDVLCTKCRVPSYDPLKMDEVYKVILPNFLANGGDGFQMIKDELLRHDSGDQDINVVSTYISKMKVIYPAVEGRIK
Would you kindly list log10 IC50 for each of these molecules?
Please interpret these as log10 of IC50 where IC50 is in µM.

Task item: For "Nc1nc(Cl)nc2c1ncn2[C@@H]1O[C@H](COC(Cc2ccc(CO)cc2)(C(=O)O)C(=O)O)[C@@H](O)[C@@H]1F" , what is its reported log10 IC50?
Reply: -0.80

Task item: For "Nc1nc(Cl)nc2c1ccn2[C@@H]1O[C@H](COC(Cc2ccc(C(=O)O)cc2)(C(=O)O)C(=O)O)[C@@H](O)[C@@H]1F" , what is its reported log10 IC50?
Reply: -0.94

Task item: For "Nc1nc(Cl)nc2c1ncn2[C@@H]1O[C@H](COC(C(=O)O)C(=O)O)[C@@H](O)[C@@H]1F" , what is its reported log10 IC50?
Reply: 1.12

Task item: For "Nc1nc(Cl)nc2c1ncn2[C@@H]1O[C@H](COC(Cc2ccc(Cl)nc2)(C(=O)O)C(=O)O)[C@@H](O)[C@@H]1F" , what is its reported log10 IC50?
Reply: -0.44

Task item: For "CS(=O)(=O)c1ccc(-c2ccc(CC(OC[C@H]3O[C@@H](n4cnc5c(N)nc(Cl)nc54)[C@@H](F)[C@@H]3O)(C(=O)O)C(=O)O)cc2)cc1" , what is its reported log10 IC50?
Reply: -1.13
